Target: TYK2 JH2 pseudokinase (human) (UniProt P29597)
Sequence (P29597 whole entry, looked up): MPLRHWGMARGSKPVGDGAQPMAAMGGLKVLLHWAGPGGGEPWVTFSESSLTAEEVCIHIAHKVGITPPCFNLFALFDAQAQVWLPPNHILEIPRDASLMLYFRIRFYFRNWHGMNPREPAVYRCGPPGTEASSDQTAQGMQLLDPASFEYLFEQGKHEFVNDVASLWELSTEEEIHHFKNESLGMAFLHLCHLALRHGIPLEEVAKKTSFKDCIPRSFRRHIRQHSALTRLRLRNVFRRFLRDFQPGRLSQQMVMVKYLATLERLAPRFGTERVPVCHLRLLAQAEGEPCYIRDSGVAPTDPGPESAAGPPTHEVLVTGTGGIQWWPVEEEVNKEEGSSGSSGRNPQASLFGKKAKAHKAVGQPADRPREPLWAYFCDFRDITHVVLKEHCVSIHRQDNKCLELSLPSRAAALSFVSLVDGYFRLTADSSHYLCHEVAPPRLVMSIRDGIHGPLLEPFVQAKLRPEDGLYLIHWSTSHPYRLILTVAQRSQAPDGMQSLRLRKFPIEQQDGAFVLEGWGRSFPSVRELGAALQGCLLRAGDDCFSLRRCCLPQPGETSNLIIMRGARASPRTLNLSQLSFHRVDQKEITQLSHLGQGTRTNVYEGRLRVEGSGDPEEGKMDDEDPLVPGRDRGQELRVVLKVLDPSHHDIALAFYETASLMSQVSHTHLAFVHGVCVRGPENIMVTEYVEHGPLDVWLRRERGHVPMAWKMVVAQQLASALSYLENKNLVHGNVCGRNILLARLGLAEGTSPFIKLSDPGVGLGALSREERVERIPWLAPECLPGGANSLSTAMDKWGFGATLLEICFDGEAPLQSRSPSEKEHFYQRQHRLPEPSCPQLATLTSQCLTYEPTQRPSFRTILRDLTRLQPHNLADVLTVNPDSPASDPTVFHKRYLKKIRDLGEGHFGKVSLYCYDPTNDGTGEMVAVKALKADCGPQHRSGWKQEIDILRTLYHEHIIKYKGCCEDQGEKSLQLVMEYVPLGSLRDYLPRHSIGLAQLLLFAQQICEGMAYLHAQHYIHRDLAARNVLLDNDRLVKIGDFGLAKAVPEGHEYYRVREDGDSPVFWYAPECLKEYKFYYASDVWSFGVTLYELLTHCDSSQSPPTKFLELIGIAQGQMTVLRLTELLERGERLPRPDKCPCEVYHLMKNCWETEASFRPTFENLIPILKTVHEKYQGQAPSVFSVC
Assay: KINOMEscan competition binding
Conditions: compound 10.0 µM
recorded_endpoint: kinase still bound, per cent of control (%)
Reply with just the number (in %).

Recorded kinase still bound, per cent of control for N=C1NC(=O)/C(=C/c2ccc(-c3ccc(F)cc3O)o2)S1 , please? 31

Recorded kinase still bound, per cent of control for COc1cc(N2CCN(C)CC2)ccc1Nc1ncc2c(n1)N(C)c1ccccc1N(C)C2=O , please? 100

Recorded kinase still bound, per cent of control for CN1C(=O)c2ccccc2N(C)c2nc(NS(=O)(=O)c3ccc(N)cc3)ncc21 , please? 63

Recorded kinase still bound, per cent of control for O=C1NC(=S)S/C1=C\c1ccc(-c2cccc3ccccc23)o1 , please? 17

Recorded kinase still bound, per cent of control for COc1cc(N2CCN(C)CC2)ccc1Nc1ncc2c(n1)N1CCC[C@H]1CC(=O)N2 , please? 27

====

Molecular target: MYLK (human) (UniProt Q15746)
Sequence (Q15746 whole entry, looked up): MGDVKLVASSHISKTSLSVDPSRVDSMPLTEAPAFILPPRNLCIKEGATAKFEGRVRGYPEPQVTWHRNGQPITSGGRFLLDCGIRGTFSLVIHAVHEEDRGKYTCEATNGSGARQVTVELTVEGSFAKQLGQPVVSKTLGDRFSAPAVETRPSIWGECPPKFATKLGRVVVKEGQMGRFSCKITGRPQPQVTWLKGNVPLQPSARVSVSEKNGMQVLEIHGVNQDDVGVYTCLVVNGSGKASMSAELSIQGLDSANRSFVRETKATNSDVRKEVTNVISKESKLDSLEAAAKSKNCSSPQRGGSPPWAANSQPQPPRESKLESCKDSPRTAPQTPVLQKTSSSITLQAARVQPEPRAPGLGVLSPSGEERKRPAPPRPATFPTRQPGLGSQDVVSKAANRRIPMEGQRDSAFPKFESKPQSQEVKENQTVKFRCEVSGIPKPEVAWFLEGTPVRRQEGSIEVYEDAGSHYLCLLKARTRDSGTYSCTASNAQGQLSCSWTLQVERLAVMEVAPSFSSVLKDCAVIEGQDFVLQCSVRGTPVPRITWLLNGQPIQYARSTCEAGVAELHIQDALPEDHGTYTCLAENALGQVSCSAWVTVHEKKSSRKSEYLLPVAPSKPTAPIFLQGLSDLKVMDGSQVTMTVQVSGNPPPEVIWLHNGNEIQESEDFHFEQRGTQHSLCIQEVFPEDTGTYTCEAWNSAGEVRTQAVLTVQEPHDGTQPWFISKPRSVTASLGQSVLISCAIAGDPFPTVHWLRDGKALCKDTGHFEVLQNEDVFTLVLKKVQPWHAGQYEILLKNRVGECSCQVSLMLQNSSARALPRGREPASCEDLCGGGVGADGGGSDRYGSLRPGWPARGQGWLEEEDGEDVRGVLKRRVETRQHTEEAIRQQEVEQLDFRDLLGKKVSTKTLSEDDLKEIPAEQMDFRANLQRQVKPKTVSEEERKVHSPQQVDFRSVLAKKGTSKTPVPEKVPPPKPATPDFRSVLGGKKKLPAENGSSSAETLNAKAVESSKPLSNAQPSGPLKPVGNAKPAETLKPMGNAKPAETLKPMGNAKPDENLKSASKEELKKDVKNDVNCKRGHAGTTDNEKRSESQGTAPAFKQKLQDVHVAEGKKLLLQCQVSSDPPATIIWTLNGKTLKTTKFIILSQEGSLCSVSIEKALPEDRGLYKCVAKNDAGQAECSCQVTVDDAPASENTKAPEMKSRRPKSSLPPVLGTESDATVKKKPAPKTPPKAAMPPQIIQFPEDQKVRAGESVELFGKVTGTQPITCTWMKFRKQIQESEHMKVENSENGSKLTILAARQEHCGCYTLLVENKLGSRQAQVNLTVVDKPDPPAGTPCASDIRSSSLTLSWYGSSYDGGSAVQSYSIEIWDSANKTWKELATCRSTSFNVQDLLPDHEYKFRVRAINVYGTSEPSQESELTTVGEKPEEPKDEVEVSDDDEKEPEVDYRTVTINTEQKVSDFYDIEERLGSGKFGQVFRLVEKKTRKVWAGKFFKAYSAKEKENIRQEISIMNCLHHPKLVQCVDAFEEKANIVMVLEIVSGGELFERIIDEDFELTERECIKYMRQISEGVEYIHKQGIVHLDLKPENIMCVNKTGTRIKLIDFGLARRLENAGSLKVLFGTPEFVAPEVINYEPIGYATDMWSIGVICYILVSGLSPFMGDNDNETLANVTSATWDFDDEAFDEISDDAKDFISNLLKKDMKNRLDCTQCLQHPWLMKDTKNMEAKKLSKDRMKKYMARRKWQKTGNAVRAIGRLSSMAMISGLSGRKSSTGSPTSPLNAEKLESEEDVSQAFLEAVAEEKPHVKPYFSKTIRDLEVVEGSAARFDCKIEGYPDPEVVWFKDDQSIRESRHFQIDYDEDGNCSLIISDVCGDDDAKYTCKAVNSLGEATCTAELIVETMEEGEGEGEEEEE
Assay: KINOMEscan competition binding
Details: compound 10.0 µM
Hi! Just check whether kinase still bound, per cent of control is below 20%. Below gives T, equal or above gives F.

Past entries and their recorded results:
>>> class_label("COc1cc(C(=O)NC2CCN(C)CC2)ccc1Nc1ncc2c(n1)N(CCc1ccccc1)CCC(=O)N2C")
"F"
>>> class_label("COc1cc(N2CCN(C)CC2)ccc1Nc1ncc2c(n1)N(C)c1sccc1C(=O)N2C")
"T"
>>> class_label("CC(C)Oc1cc(N2CCC(N(C)C)CC2)ccc1Nc1ncc2c(n1)N1CCC[C@H]1CC(=O)N2C")
"F"
>>> class_label("COc1cc(N2CCC(C)(O)CC2)ccc1Nc1ncc2c(n1)N(C1CCCC1)CCC(=O)N2C")
"F"
>>> class_label("COc1cc(N2CCC(N3CCN(C)CC3)CC2)ccc1Nc1ncc2c(n1)N1CCCC1CC(=O)N2C (configuration not stated)")
"F"
>>> class_label("CS(=O)(=O)Nc1ccc(-c2ccc(/C=C3\\SC(=N)NC3=O)o2)cc1")
"T"

Here's an entry: O=C1NC(=O)/C(=C/c2c[nH]c(=O)c(-c3ccc(N4CCNCC4)nc3)c2)S1 . Is its kinase still bound, per cent of control below 20%? F

====

Below: a set of entries, each annotated with reported kinase still bound, per cent of control.
Target: FYN (human)
Assay: KINOMEscan competition binding
Settings: compound 10.0 µM
Reply with just the number (in %).

Past entries and their recorded results:
>>> observed("CN1CCN(c2ccc(C(=O)Nc3ncc4c(n3)N(C)c3ccccc3C(=O)N4C)cc2)CC1")
95
>>> observed("CN1C(=O)c2ccccc2N(C)c2nc(NS(=O)(=O)c3ccc(N)cc3)ncc21")
100
>>> observed("CN1C(=O)[C@H]2CCC[C@H]2N(C2CCCC2)c2nc(Nc3ccc4ncccc4c3)ncc21")
34

--- query ---
Recorded kinase still bound, per cent of control for O=C1NC(=O)/C(=C/c2c[nH]c(=O)c(-c3ccc(N4CCNCC4)nc3)c2)S1 , please? 92

====

Biological target: WEE1 (human) (UniProt P30291)
Sequence (P30291 whole entry, looked up): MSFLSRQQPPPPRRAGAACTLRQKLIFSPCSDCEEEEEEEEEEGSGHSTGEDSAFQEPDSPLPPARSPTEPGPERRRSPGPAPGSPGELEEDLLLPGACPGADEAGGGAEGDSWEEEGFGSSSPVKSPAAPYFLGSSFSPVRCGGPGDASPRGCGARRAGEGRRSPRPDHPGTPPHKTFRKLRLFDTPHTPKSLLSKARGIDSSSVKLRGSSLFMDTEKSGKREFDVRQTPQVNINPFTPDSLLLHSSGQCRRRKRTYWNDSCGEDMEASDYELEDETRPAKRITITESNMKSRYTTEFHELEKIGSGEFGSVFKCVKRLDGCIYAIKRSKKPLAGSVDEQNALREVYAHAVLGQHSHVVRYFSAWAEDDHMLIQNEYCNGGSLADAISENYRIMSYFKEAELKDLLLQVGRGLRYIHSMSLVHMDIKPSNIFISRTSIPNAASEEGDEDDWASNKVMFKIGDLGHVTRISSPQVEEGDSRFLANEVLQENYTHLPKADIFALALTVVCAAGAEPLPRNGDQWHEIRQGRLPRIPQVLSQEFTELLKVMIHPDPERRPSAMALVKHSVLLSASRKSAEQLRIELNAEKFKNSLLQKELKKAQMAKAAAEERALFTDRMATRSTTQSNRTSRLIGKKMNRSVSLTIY
Assay: KINOMEscan competition binding
Details: compound 10.0 µM
Below: a set of entries, each annotated with reported kinase still bound, per cent of control.
Reply with just the number (in %).

>>> observed("O=C1NC(=O)/C(=C/c2c[nH]c(=O)c(-c3ccc(N4CCNCC4)nc3)c2)S1")
91
>>> observed("COc1cc(N2CCN(C)CC2)ccc1Nc1ncc2c(n1)Nc1ccccc1NC2=O")
86

--- query ---
Find kinase still bound, per cent of control (WEE1 (human) (UniProt P30291)) for the entry COc1cc(N2CCC(O)CC2)ccc1Nc1ncc2c(n1)N1CCc3cccc(c31)C(=O)N2C 100
